system: A2780 cancer cells; assay: ROS/superoxide detection by flow cytometry, A2780; conditions: A2780, 24 h, 1.0 × IC50 (pyocyanin positive control 0.1 mM); superoxide only
% Population Q1 FL1-H- / FL2-H+ for assorted compounds
observedProperty: % Population Q1 FL1-H- / FL2-H+ (%)

{"columns": ["compound", "tgt", "observedProperty", "experimentalValue"],
 "data": [
  ["Cn1c2cccc(=O)c-2nc2ccccc21 [Pyocyanin, pyocyanin, reference compound]", "A2780 cancer cells", "% Population Q1 FL1-H- / FL2-H+", 0.03],
  ["CN(C)c1ccc(N=Nc2ccccn2)cc1.Cc1ccc(C(C)C)cc1.F[P-](F)(F)(F)(F)F.[I][Os+] [Complex 10, [Os(Azpy-NMe2)(p-cymene)I]PF6]", "A2780 cancer cells", "% Population Q1 FL1-H- / FL2-H+", 1.65],
  ["Cc1ccc(C(C)C)cc1.Cc1ccc(S(=O)(=O)[N-]C(c2ccccc2)C([NH-])c2ccccc2)cc1.[Os+2] (stereo not shown) [Complex 1, [Os(p-cymene)(Ts-DPEN)]]", "A2780 cancer cells", "% Population Q1 FL1-H- / FL2-H+", 1.2],
  ["CN(C)c1ccc(N=Nc2ccccn2)cc1.Cc1ccc(C(C)C)cc1.F[P-](F)(F)(F)(F)F.[Cl][Os+] [Complex 9, [Os(Azpy-NMe2)(p-cymene)Cl]PF6]", "A2780 cancer cells", "% Population Q1 FL1-H- / FL2-H+", 0]
]}

----------
system: A549 lung carcinoma cells; assay: Sulforhodamine B antiproliferative assay, A549; assay type: cell-based, human; conditions: 24 h drug exposure + 72 h recovery, SRB
IC50 for assorted compounds

{"columns": ["compound", "IC50, µM"],
 "data": [
  ["N.N.[Cl][Pt][Cl] [cisplatin, reference compound]", 3.2],
  ["CN(C)c1ccc(N=Nc2ccccn2)cc1.F[P-](F)(F)(F)(F)F.[Cl][Os+].c1ccc(-c2ccccc2)cc1 [Complex 11, [Os(Azpy-NMe2)(biphenyl)Cl]PF6]", 20],
  ["Cc1ccc(C(C)C)cc1.O=S(=O)(c1ccc(F)cc1)[N]1[Os][NH][C@H](c2ccccc2)[C@H]1c1ccccc1 [Complex 4, [Os(p-cymene)(Fb-DPEN)]]", 31.5],
  ["Cc1ccc(S(=O)(=O)[N]2[Os][NH][C@H](c3ccccc3)[C@H]2c2ccccc2)cc1.c1ccc(-c2cccc(-c3ccccc3)c2)cc1 [Complex 8, [Os(terphenyl)(Ts-DPEN)]]", 25.5]
]}
